# measurementDescription: small-molecule microarray binders of probe aDKK1, primary screen, biochemical, biotinylated probe, 635/667 nm fluorescence (AID 1099);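 note: score merges 667nm spot fluorescence with signal to noise across triplicate slides; reference of the scale not given here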
# testSettings: higher = more signal
Give composite z-score for every item shown.
Number only, no unit.

Enquiry: Give the measured composite z-score of Cc1ccc2[nH]c3nc(CCCn4ccnc4-c4ccccc4)nnc3c2c1 .
Return: -0.28

Enquiry: Could you do the same for COC(=O)[C@H](C)NC(=O)CCC1CC(OC(=O)NCc2cccc3ccccc23)CC2(CCCC(COC(=O)NCCC(C)C)O2)O1 (stereo not given in full) , please?
Return: -0.144

Enquiry: Then O=C1C2=CC[C@H]3C(=O)N(C[C@@H]4CCCO4)C(=O)[C@H]3[C@H]2[C@H](O)[C@@H]2O[C@H]12 ?
Return: -0.28

Enquiry: What about this compound? CC(CCN1CCCCc2nc(C)c(C)cc21)=NO[C@H](C)c1cn([C@@H]2COC[C@H]2O)nn1
Return: -0.404

Enquiry: Check C#CCCCON=C1C[C@@H](O)[C@@H](O)[C@@H]2[C@@H]3C(=O)N(C4CCCCC4)C(=O)[C@@H]3CC[C@@H]12 too.
Return: 0.0266

Enquiry: // same read-out, input: O=C1[C@H]2[C@H]3[C@H](O)[C@H](O)CC(=NO[C@@H]4O[C@H](CO)[C@@H](O)[C@H](O)[C@H]4O)[C@@H]3CC[C@H]2C(=O)N1c1cccc(Oc2ccccc2)c1
Return: -0.327

Enquiry: Check CCOC(=O)[C@H](Cc1ccccc1)NC(=O)CCC1CC(OC(=O)NCCc2ccc(F)cc2)CC2(CCCC(COC(=O)NCCC(C)C)O2)O1 (stereo not given in full) too.
Return: -0.226

Enquiry: Quick one: CC(C)CON=C1C[C@@H](O)[C@@H](O)[C@@H]2[C@@H]3C(=O)N([C@@H](C)c4ccccc4)C(=O)[C@@H]3CC[C@@H]12
Return: 0.083

Enquiry: Quick one: CCO[C@H](c1cc(OC)cc([N+](=O)[O-])c1OC)[C@H](C)[C@@H](OC)[C@H](C)C=CCC(=O)OC
Return: 0.481

Enquiry: Let us now turn to COC(=O)[C@H](C)NC(=O)CCC1CC(OC(=O)NCCc2ccc(F)cc2)CC2(CCCC(COC(=O)NCc3ccccc3)O2)O1 (stereo not given in full)
Return: -0.128

Enquiry: Proceed to CC(CCN1CCCc2nc(C)c(C)cc21)=NOC[C@@H](C)[C@H](OCc1ccccc1)C(C)C
Return: -0.359

Enquiry: Also check CC(=O)OC[C@H]1O[C@H](CC=NOC[C@@H](O)[C@H]2O[C@@H]3OC(C)(C)O[C@@H]3[C@H]2O)C=C[C@@H]1OC(C)=O
Return: -0.0771

Enquiry: Also check CCN1C(=O)[C@H]2[C@H]3[C@H](O)[C@H](O)CC(=NO[C@H](C)c4cn([C@@H]5COC[C@H]5O)nn4)[C@@H]3CC[C@H]2C1=O
Return: -0.19

Enquiry: Now the compound CO[C@@H]1C=CCC(=O)N[C@@H](C)C(=O)OC[C@@H](NS(=O)(=O)c2ccc(C)cc2)[C@H](C)C=CCC(=O)OC[C@H]1C
Return: -0.298

Enquiry: Try CC(C)=NO[C@H](C)c1cn([C@@H]2COC[C@H]2O)nn1 next.
Return: -0.0146

* * *

Can you tell me z-score for the items I'm about to list?
# experimentalSystem: NADPH oxidase 4 (Homo sapiens) (UniProt Q9NPH5)
# Sequence (Q9NPH5 whole entry, looked up): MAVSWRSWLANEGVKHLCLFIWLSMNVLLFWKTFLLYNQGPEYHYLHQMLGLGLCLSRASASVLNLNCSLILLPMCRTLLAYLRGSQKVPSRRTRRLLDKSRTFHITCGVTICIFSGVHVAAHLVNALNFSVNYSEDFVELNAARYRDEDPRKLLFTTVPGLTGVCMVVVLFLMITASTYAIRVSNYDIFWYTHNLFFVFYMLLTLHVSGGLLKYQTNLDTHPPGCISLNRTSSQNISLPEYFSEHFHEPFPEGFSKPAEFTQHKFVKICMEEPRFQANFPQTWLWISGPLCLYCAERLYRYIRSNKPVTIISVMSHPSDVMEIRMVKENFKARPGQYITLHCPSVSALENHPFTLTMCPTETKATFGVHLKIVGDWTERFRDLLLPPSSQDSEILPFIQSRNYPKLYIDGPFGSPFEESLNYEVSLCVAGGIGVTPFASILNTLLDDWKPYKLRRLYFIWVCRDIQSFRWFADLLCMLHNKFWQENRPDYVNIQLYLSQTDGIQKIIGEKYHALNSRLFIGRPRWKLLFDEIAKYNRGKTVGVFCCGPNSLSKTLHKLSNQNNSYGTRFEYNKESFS
# measurementDescription: NOX4-dependent H2O2 signal modulators, primary screen, NOX inhibitor project, cell-based, HEK293-NOX4, tetracycline-induced, Amplex Red fluorescence (AID 1160)
# testSettings: 45 min, higher = more signal, called active from +8 up or from −8 down
Lab note: jot the number down without any unit.

Enquiry: # value lookup — system NADPH oxidase 4 (Homo sapiens) (UniProt Q9NPH5), readout z-score, item COc1ccc(OC[C@@H]2CC3[C@@H](c4ccc(Br)cc4)[C@H](C)CC[C@H]3C(=O)O2)cc1 (stereo partly drawn)
Return: -0.178

Enquiry: Please do the same for CC(C)CON=C1C[C@@H](O)[C@@H](O)[C@@H]2[C@@H]3C(=O)N(Cc4ccc5c(c4)OCO5)C(=O)[C@@H]3CC[C@@H]12 as well.
Return: 0.409

Enquiry: Try the molecule COc1ccc(COC(=O)NN=C2C[C@@H](O)[C@@H](O)[C@@H]3[C@@H]4C(=O)N([C@@H](C)c5ccccc5)C(=O)[C@@H]4CC[C@H]23)cc1
Return: 0.672

Enquiry: Cool, now OC[C@H]1O[C@H](C#Cc2ccccc2)C=C[C@@H]1O
Return: 0.662

Enquiry: Could you do the same for CC(C)=NOC(C)CN1CCCCc2nc(C)c(C)cc21 (stereo not drawn) , please?
Return: -0.278

Enquiry: Now consider CCCNC(=O)OC[C@H]1O[C@H](CCON=C2c3cc(OC)ccc3O[C@H](c3cccc(OC)c3)[C@H]2O)C=C[C@@H]1Oc1ccc(OC)cc1 and answer again.
Return: 0.455

Enquiry: Could you do the same for CC(C)=NO[C@@H](C)c1cn([C@H](CO)Cc2ccccc2)nn1 , please?
Return: 0.0692

Enquiry: And what about the molecule COC(=O)[C@@H]1CC[C@H](C)[C@@H](c2ccc(C)cc2)N1C(=O)c1ccc(C=NOC[C@@H](O)[C@H]2O[C@@H]3OC(C)(C)O[C@@H]3[C@H]2O)cc1 ?
Return: 0.589

* * *

# measurementDescription: small-molecule binders of probe aInhba, primary screen, biochemical, small-molecule microarray, 635/667 nm fluorescence (AID 1148);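 note: score merges 667nm spot fluorescence with signal-to-noise for antibody binding to printed compounds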
# testSettings: higher = more signal
propertyMeasured: composite z-score
In your answer, state the number alone without any accompanying words.

Enquiry: Endpoint output: composite z-score of CC(C)=NOC(C)CN1CCCc2nc(C)c(C)cc21 (stereo unspecified) . Value?
Return: 0.0074

Enquiry: What about CO[C@H]1COC(=O)CCC[C@H](C)[C@@H](OC)COC(=O)CC=C[C@@H]1C ?
Return: -0.128

Enquiry: Now try C=CC[C@@H]1C=C[C@H](ON=C2C[C@@H](O)[C@@H](O)[C@@H]3[C@@H]4C(=O)N(CC)C(=O)[C@@H]4CC[C@@H]23)[C@@H](CO)O1 .
Return: -0.104

Enquiry: Same lookup for CC(C)=CCCC(C)=CCON=C1C[C@@H](O)[C@@H](O)[C@@H]2[C@@H]3C(=O)N(Cc4ccc5c(c4)OCO5)C(=O)[C@@H]3CC[C@@H]12 , please.
Return: -0.0791

Enquiry: CC(CCN1CCCCc2nc(C)c(C)cc21)=NO[C@H](C)c1cn([C@@H]2COC[C@H]2O)nn1 , same question.
Return: -0.0701

Enquiry: Repeat for the following compound: COc1cccc([C@H](O)Cn2cc(-c3ccc(CON=C(C)C)cc3)nn2)c1
Return: 0.0082

Enquiry: Follow-up item: COc1ccc(OC[C@@H]2CC3[C@@H](c4ccc(Br)cc4)[C@H](C)CC[C@H]3C(=O)O2)cc1 (stereo partly specified)
Return: -0.202

Enquiry: Try this compound next: CCOC(=O)[C@H](CC(C)C)NC(=O)CCC1CC(OC(=O)NCc2ccc3c(c2)OCO3)CC2(CCCC(COC(=O)NCCC(C)C)O2)O1 (stereo partly specified)
Return: -0.128

Enquiry: Next: CC(=O)OC[C@H]1O[C@H](CC=NO[C@@H](C)c2cn([C@H](CO)Cc3ccccc3)nn2)C=C[C@@H]1OC(C)=O
Return: -0.0963

Enquiry: Would you mind doing CC(C)(C)N1C(=O)[C@H]2[C@H]3[C@H](O)[C@H](O)CC(=NNC(=O)OCc4ccccc4)[C@@H]3CC[C@H]2C1=O as well?
Return: -0.13

Enquiry: Also COc1ccc(O[C@H]2C=C[C@@H](c3ccccc3)O[C@@H]2CO)cc1 , if possible.
Return: -0.0412

Enquiry: Also, C[C@@H](c1ccccc1)N1C(=O)[C@H]2[C@H]3[C@H](O)[C@H](O)CC(=NOC[C@@H](O)COCc4ccco4)[C@H]3CC[C@H]2C1=O please.
Return: -0.253

Enquiry: Field entry: COC(=O)C1=C(C)N(Cc2ccccc2)C2=C3C(=O)OCC[C@@H]3[C@@](O)(C(=O)OC)C(=O)N2[C@@H]1c1ccccc1
Return: -0.0221

Enquiry: Continue with CC(=O)OC[C@H]1O[C@H](C#CCCc2ccccc2)C=C[C@@H]1OC(C)=O
Return: -0.0719

Enquiry: Cool, now O=C(NCCC[N+]1=CC=NC1c1ccccc1)N1CCCc2nc(-c3ccc(Br)cc3)ccc21 (stereo unspecified)
Return: -0.118

Enquiry: Next: CO[C@H]1COC(=O)[C@H](CCSC)NC(=O)CC=C[C@@H](C)[C@H](OC)COC(=O)[C@@H](OCc2ccccc2)C=C[C@@H]1C
Return: -0.101
